Ki: recorded values
Biological target: Delta-type opioid receptor (Homo sapiens, UniProt P41143)
Sequence (P41143 whole entry): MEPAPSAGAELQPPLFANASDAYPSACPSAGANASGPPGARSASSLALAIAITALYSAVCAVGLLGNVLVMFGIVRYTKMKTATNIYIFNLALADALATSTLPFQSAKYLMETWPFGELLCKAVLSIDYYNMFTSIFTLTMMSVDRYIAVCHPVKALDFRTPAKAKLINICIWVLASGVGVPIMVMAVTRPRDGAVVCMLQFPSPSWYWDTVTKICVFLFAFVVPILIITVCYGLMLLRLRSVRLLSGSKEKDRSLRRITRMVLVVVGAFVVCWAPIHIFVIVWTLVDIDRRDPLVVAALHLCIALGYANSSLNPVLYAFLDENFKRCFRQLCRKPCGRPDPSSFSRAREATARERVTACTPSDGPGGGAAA
Assay: Displacement of [3H]diprenorphine from human cloned delta receptor by cell based assay
Square brackets hold non-standard residues; d marks the D form. Peptide text beside a SMILES is read from it.

Consider the following illustrative entries.
O=C1N[C@@H](Cc2ccccc2)C(=O)N2CCC[C@@H]2C(=O)N[C@@H](Cc2ccccc2)C(=O)N[C@H]1Cc1c[nH]c2ccccc12 (cyclo(FWF[dP])): 2000 nM
O=C1N[C@H](Cc2c[nH]c3ccccc23)C(=O)N[C@@H](Cc2ccccc2)C(=O)N2CCC[C@@H]2C(=O)N[C@H]1Cc1ccc(O)cc1: > 1000 nM

Kindly consider the entry below.
query: Which measured Ki value corresponds to C[C@H]1NC(=O)[C@H](Cc2ccccc2)NC(=O)[C@H]2CCCN2C(=O)[C@H](Cc2ccccc2)NC1=O ?
result: > 1000 nM

----------
Target: Mu-type opioid receptor (Homo sapiens, UniProt P35372)
Sequence (P35372 whole entry): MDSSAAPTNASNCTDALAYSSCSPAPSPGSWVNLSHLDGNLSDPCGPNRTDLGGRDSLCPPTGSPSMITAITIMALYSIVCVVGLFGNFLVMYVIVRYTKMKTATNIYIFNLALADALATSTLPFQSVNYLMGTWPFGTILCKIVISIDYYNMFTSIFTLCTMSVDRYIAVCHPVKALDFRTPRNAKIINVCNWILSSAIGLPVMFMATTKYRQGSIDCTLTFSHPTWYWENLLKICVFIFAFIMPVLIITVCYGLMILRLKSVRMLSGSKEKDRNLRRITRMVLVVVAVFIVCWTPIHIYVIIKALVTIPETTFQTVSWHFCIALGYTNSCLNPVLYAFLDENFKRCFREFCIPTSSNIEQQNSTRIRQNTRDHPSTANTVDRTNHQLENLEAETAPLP
Square brackets hold non-standard residues; d marks the D form. Peptide text beside a SMILES is read from it.
ASSAY_ENDPOINT: Ki

Completed entries (count: 2):
COc1ccc(C[C@@H]2NC(=O)[C@@H](Cc3c[nH]c4ccccc34)NC(=O)[C@H](Cc3ccccc3)NC(=O)[C@H]3CCCN3C2=O)cc1: 0.17 µM
O=C1N[C@@H](Cc2ccccc2)C(=O)N2CCC[C@@H]2C(=O)N[C@@H](Cc2ccccc2)C(=O)N[C@H]1Cc1c[nH]c2ccccc12 (cyclo(FWF[dP])): 0.13 µM

query: GET /values?readout=Ki&item= CC(=O)n1cc(C[C@H](N)C(=O)N[C@@H](Cc2ccccc2)C(=O)N2CCC[C@@H]2C(=O)N[C@@H](Cc2ccccc2)C(N)=O)c2ccccc21
result: > 1 µM

query: // same read-out, input: O=C1N[C@H](Cc2c[nH]c3ccccc23)C(=O)N[C@@H](Cc2ccccc2)C(=O)N2CCC[C@@H]2C(=O)N[C@H]1Cc1ccccc1 (cyclo(F[dP]F[dW]))
result: 0.03 µM

query: Would you kindly repeat that for CC(=O)N1CCC[C@@H]1C(=O)N[C@@H](Cc1ccccc1)C(=O)N[C@@H](Cc1c[nH]c2ccccc12)C(=O)N[C@@H](Cc1ccccc1)C(N)=O ?
result: > 1 µM

query: Request: O=C1N[C@H](Cc2c[nH]c3ccccc23)C(=O)N[C@@H](Cc2ccccc2)C(=O)N2CCC[C@@H]2C(=O)N[C@H]1Cc1cccc(O)c1
result: 0.04 µM

----------
Record set of pKi for target or system UniProt:P41145.
Give only the number. pKi is defined as minus log10 of concentration in molar units.

query: Request - read-out pKi | tested on UniProt:P41145 | compound COc1ccc(C[C@@H]2NC(=O)[C@H]3CCCN3C(=O)[C@H](Cc3ccccc3)NC(=O)[C@@H](Cc3c[nH]c4ccccc34)NC2=O)cc1
result: 7.85

query: Quick one: O=C1N[C@H](Cc2c[nH]c3ccccc23)C(=O)N[C@@H](Cc2ccc(O)cc2)C(=O)N2CCC[C@@H]2C(=O)N[C@H]1Cc1ccccc1
result: 6.66

query: COc1ccc(C[C@@H]2NC(=O)[C@@H](Cc3c[nH]c4ccccc34)NC(=O)[C@H](Cc3ccccc3)NC(=O)[C@H]3CCCN3C2=O)cc1 ?
result: 7.18

query: Check O=C1N[C@H](Cc2c[nH]c3ccccc23)C(=O)N[C@@H](Cc2ccccc2)C(=O)N2CCC[C@@H]2C(=O)N[C@H]1Cc1cccc(O)c1 too.
result: 7.70

query: Again, but for O=C1N[C@H](Cc2c[nH]c3ccccc23)C(=O)N[C@@H](Cc2cccc(O)c2)C(=O)N2CCC[C@@H]2C(=O)N[C@H]1Cc1ccccc1
result: 7.11

----------
The entries below come with measured pKi values attached.
Target: UniProt:P35372
# pKi = -log10(concentration in molar units)

Study these solved cases before continuing.
O=C1N[C@H](Cc2c[nH]c3ccccc23)C(=O)N[C@@H](Cc2ccc(F)cc2)C(=O)N2CCC[C@@H]2C(=O)N[C@H]1Cc1ccccc1: 6.68
O=C1N[C@H](Cc2c[nH]c3ccccc23)C(=O)N[C@@H](Cc2ccccc2)C(=O)N2CCC[C@@H]2C(=O)N[C@H]1Cc1ccc(O)cc1: 6.92
CC(=O)N[C@@H](Cc1ccccc1)C(=O)N[C@H](Cc1c[nH]c2ccccc12)C(=O)N[C@@H](Cc1ccccc1)C(=O)N1CCC[C@@H]1C(N)=O: 6.44

Attention now shifts to the item below.
query: Hello, I am looking for reported pKi with UniProt:P35372 for COc1ccc(C[C@@H]2NC(=O)[C@H]3CCCN3C(=O)[C@H](Cc3ccccc3)NC(=O)[C@@H](Cc3c[nH]c4ccccc34)NC2=O)cc1 . Could you help?
result: 7.37

----------
Molecular target: Delta-type opioid receptor (Homo sapiens, UniProt P41143)
Experiment: Displacement of [3H]diprenorphine from human cloned delta receptor by cell based assay
# reported Ki; entries follow

Examples with their reported Ki follow.
CC(=O)N[C@H](Cc1c[nH]c2ccccc12)C(=O)N[C@@H](Cc1ccccc1)C(=O)N1CCC[C@@H]1C(=O)N[C@@H](Cc1ccccc1)C(N)=O: > 1000 nM
O=C1N[C@H](Cc2c[nH]c3ccccc23)C(=O)N[C@@H](Cc2ccccc2)C(=O)N2CCC[C@@H]2C(=O)N[C@H]1Cc1cccc(O)c1: 3400 nM
CC(=O)n1cc(C[C@H](N)C(=O)N[C@@H](Cc2ccccc2)C(=O)N2CCC[C@@H]2C(=O)N[C@@H](Cc2ccccc2)C(N)=O)c2ccccc21: > 1000 nM

Now consider a different compound.
query: Ki lookup needed for O=C1N[C@H](Cc2c[nH]c3ccccc23)C(=O)NCC(=O)N2CCC[C@@H]2C(=O)N[C@H]1Cc1ccccc1 , thanks.
result: > 1000 nM

----------
Target: Kappa-type opioid receptor (Homo sapiens, UniProt P41145)
Sequence (P41145 whole entry): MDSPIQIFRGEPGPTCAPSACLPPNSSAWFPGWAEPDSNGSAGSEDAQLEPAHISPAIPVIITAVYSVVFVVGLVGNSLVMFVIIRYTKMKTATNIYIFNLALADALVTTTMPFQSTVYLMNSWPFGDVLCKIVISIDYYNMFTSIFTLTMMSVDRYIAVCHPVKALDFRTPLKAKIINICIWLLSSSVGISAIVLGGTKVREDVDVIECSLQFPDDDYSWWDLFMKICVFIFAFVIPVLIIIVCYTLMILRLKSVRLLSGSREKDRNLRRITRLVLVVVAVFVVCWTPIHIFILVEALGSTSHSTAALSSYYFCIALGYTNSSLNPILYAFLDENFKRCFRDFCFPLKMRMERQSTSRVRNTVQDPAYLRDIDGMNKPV
Square brackets hold non-standard residues; d marks the D form. Peptide text beside a SMILES is read from it.
Field 'label' (enum: 1 (yes) / 0 (no)). Set to 1 (yes) when Ki is strictly under 100 nM; else 0 (no).

CC(=O)N1CCC[C@@H]1C(=O)N[C@@H](Cc1ccccc1)C(=O)N[C@H](Cc1c[nH]c2ccccc12)C(=O)N[C@@H](Cc1ccccc1)C(N)=O: 0 (no)

query: Is it true that Ki reported for CC(=O)N[C@H](Cc1c[nH]c2ccccc12)C(=O)N[C@@H](Cc1ccccc1)C(=O)N1CCC[C@@H]1C(=O)N[C@@H](Cc1ccccc1)C(N)=O is less than 100 nM?
result: 0 (no)

query: Input O=C1N[C@H](Cc2c[nH]c3ccccc23)C(=O)N[C@@H](Cc2ccccc2)C(=O)N2CCC[C@@H]2C(=O)N[C@H]1Cc1ccccc1 (cyclo(F[dP]F[dW]))
result: 1 (yes)

query: And for CC(=O)N1CCC[C@@H]1C(=O)N[C@@H](Cc1ccccc1)C(=O)N[C@@H](Cc1c[nH]c2ccccc12)C(=O)N[C@@H](Cc1ccccc1)C(N)=O ?
result: 0 (no)

query: Also check C[C@@H]1NC(=O)[C@H]2CCCN2C(=O)[C@H](Cc2ccccc2)NC(=O)[C@@H](Cc2c[nH]c3ccccc23)NC1=O (cyclo(A[dW]F[dP]))
result: 0 (no)

query: How about O=C1N[C@H](Cc2c[nH]c3ccccc23)C(=O)N[C@@H](Cc2ccccc2)C(=O)N2CCC[C@@H]2C(=O)N[C@H]1Cc1ccc(F)cc1 ?
result: 1 (yes)

query: Same question, O=C1N[C@H](Cc2c[nH]c3ccccc23)C(=O)NCC(=O)N2CCC[C@@H]2C(=O)N[C@H]1Cc1ccccc1 this time
result: 0 (no)

query: Now the compound C[C@H]1NC(=O)[C@H](Cc2ccccc2)NC(=O)[C@H]2CCCN2C(=O)[C@H](Cc2ccccc2)NC1=O
result: 0 (no)

query: Input O=C1N[C@H](Cc2c[nH]c3ccccc23)C(=O)N[C@@H](Cc2ccccc2)C(=O)N2CCC[C@@H]2C(=O)N[C@H]1Cc1ccc(O)cc1
result: 0 (no)

query: What do you have for CC(=O)n1cc(C[C@H](N)C(=O)N[C@@H](Cc2ccccc2)C(=O)N2CCC[C@@H]2C(=O)N[C@@H](Cc2ccccc2)C(N)=O)c2ccccc21 ?
result: 0 (no)

query: Another compound to check: CC(=O)N[C@@H](Cc1ccccc1)C(=O)N1CCC[C@@H]1C(=O)N[C@@H](Cc1ccccc1)C(=O)N[C@H](Cc1c[nH]c2ccccc12)C(N)=O
result: 0 (no)

query: Please do the same for O=C1N[C@H](Cc2c[nH]c3ccccc23)C(=O)N[C@@H](Cc2ccc(F)cc2)C(=O)N2CCC[C@@H]2C(=O)N[C@H]1Cc1ccccc1 as well.
result: 1 (yes)

query: How about this compound: O=C1N[C@@H](Cc2ccccc2)C(=O)N2CCC[C@@H]2C(=O)N[C@@H](Cc2ccccc2)C(=O)N[C@H]1Cc1c[nH]c2ccccc12 (cyclo(FWF[dP]))
result: 1 (yes)
